Just for reference, the supplement of paper PMC4723716 is where these values come from.

tested on: Plasmodium falciparum NF54 stage V gametocytes; assay: viability index relative to DMSO control (fraction); higher = less gametocyte killing; settings: 2.5 µM, library set: Broad Institute DOS, incubation time: 72 h
The full ranking holds about 9,900 compounds; the median of “viability index relative to DMSO control” is about 1, and the lowest 2% start at about 0.85. Shown is part of a subset that was picked to be rich in the lowest values.
endpoint: viability index
// keep it numeric: no unit symbol after the value

Sample records with viability index:
C[C@H]1CN([C@@H](C)CO)C(=O)c2cccc(NS(C)(=O)=O)c2O[C@@H]1CN(C)Cc1ccc(-c2ccccc2)cc1 | 1
CO[C@@H]1CC[C@H]2CCN(C)C(=O)[C@H](C)CN(C)C(=O)c3cc(C#N)ccc3OC[C@@H]1O2 | 0.973
COc1cccc(C#Cc2ccc([C@@H]3[C@@H](CO)N4C(=O)CN(C(=O)Cc5cccnc5)C[C@H]34)cc2)c1 | 1.01
COc1ccc2c3c([C@@H](CO)N(Cc4ccncc4)C[C@]33CN(C3)C(=O)Nc3cccc(F)c3)n(C)c2c1 | 1
O=C(Cc1cccnc1)N1CC(=O)N2[C@H](CO)[C@@H](c3ccc(C#CC4CCCCC4)cc3)[C@H]2C1 | 1.04

For Plasmodium falciparum NF54 stage V gametocytes, provide viability index of COc1ccc(NC(=O)N(C)C[C@@H]2Oc3c(NC(=O)CCCCCC(=O)Nc4ccccc4N)cccc3C(=O)N([C@@H](C)CO)C[C@@H]2C)cc1 please.
0.943

Moving on to the next molecule: C[C@H](CO)N1C[C@H](C)[C@H](CN(C)Cc2ccc(-c3ccccc3)cc2)Oc2c(NS(C)(=O)=O)cccc2C1=O
0.827

Moving on to the next molecule: COc1ccc(NC(=O)N(C)C[C@@H]2Oc3c(NC(=O)CCCCCC(=O)Nc4ccccc4N)cccc3C(=O)N([C@@H](C)CO)C[C@H]2C)cc1
1.07

Moving on to the next molecule: COc1cccc(C#Cc2ccc([C@H]3[C@H](CO)N4C(=O)CN(C(=O)Cc5cccnc5)C[C@@H]34)cc2)c1
0.945

Moving on to the next molecule: O=C(Cc1cccnc1)N1CC(=O)N2[C@H](CO)[C@@H](c3ccc(C#CC4CCCCC4)cc3)[C@@H]2C1
1.07

Moving on to the next molecule: COc1cccc(C#Cc2ccc([C@@H]3[C@H](CO)N4C(=O)CN(C(=O)Cc5cccnc5)C[C@@H]34)cc2)c1
0.904

Moving on to the next molecule: COc1ccc(NC(=O)N(C)C[C@H]2Oc3c(NC(=O)CCCCCC(=O)Nc4ccccc4N)cccc3C(=O)N([C@H](C)CO)C[C@H]2C)cc1
0.62

Moving on to the next molecule: COc1ccc(NC(=O)N(C)C[C@@H]2Oc3c(NC(=O)CCCCCC(=O)Nc4ccccc4N)cccc3C(=O)N([C@H](C)CO)C[C@H]2C)cc1
0.893

Moving on to the next molecule: Cc1ccccc1-c1ccc([C@@H]2[C@@H]3CN(Cc4cocn4)C[C@H]2N3)cc1
0.949

Moving on to the next molecule: C[C@H](CO)N1C[C@H](C)[C@@H](CN(C)C(=O)Nc2ccccc2F)Oc2cc(Br)ccc2S1(=O)=O
1.01

====

test system: Plasmodium falciparum NF54 stage V gametocytes; experiment: viability index relative to DMSO control (fraction); higher = less gametocyte killing; details: 2.5 µM, library set: Broad Institute DOS, incubation time: 72 h
The full ranking holds about 9,900 compounds; the median of “viability index relative to DMSO control” is about 1, and the lowest 2% start at about 0.85. This excerpt belongs to a sample that is enriched for the lowest values.
Attribute: viability index
// keep it numeric: no unit symbol after the value

Sample records with viability index:
COc1ccc(C#Cc2cccc(-c3nc(C(=O)NCc4ccc5c(c4)OCO5)cc4c3[C@@H](CCO)N(S(=O)C(C)(C)C)C4)c2)cc1OC (some centres not stated) | 0.906
COc1ccccc1-c1cccc(-c2nc(C(=O)N3CCN(C)CC3)cc3c2[C@H](CCO)N([S@@](=O)C(C)(C)C)C3)c1 | 1.03
C[C@H]1CN([C@@H](C)CO)C(=O)CCCn2nncc2CO[C@H]1CN(C)C(=O)c1ccc2ccn(C)c2c1 | 1.02
CC(C)(C)S(=O)N1Cc2cc(C(=O)NCc3ccc4c(c3)OCO4)nc(-c3cccc(-c4cc5ccccc5o4)c3)c2[C@H]1CCO (some centres not stated) | 0.656
CC(C)(C)S(=O)N1Cc2cc(C(=O)N3CCN(Cc4ccccc4)CC3)nc(-c3cccc(-c4cc5ccccc5o4)c3)c2[C@H]1CCO (some centres not stated) | 0.736
COCC#Cc1ccc([C@H]2[C@H]3CN(C(=O)C4CCCCC4)CC(=O)N3[C@H]2CO)cc1 | 1.01

Switching to the query record.
For Plasmodium falciparum NF54 stage V gametocytes, provide viability index of CCCC#Cc1cnc2c(c1)C(=O)N([C@H](C)CO)C[C@H](C)[C@H](CN(C)C(=O)Nc1cc(F)ccc1F)O2 please.
1.02
